System: PC-3
Experiment: Growth inhibition of human PC3 cells assessed as cell viability at 10 uM incubated for 48 hrs by sulforhodamine B assay
Assay type: functional
Details: PC-3, 48 h, read-out: Activity
MEASURE NAME: viability at 10 µM (%)

[[record]]
molecule = "CN(C)c1ccc(C2CC(c3cc4ccccc4oc3=O)=NN2c2ccc(S(=O)(=O)NC(=O)NCc3ccccc3)cc2)cc1 (stereo not given)"
numeric_readout = 67.1

[[record]]
molecule = "COc1ccc(C2CC(c3cc4ccccc4oc3=O)=NN2c2ccc(S(=O)(=O)NC(=O)Nc3ccccc3C)cc2)cc1 (stereo not given)"
numeric_readout = 81

[[record]]
molecule = "COc1ccc(C2CC(c3ccco3)=NN2c2ccc(S(=O)(=O)NC(=O)NCc3ccccc3)cc2)cc1 (stereo not given)"
numeric_readout = 92.4

[[record]]
molecule = "O=C(NCc1ccccc1)NS(=O)(=O)c1ccc(N2N=C(c3cc4ccccc4oc3=O)CC2c2cccs2)cc1 (stereo not given)"
numeric_readout = 108

[[record]]
molecule = "COc1ccc(NC(=O)NS(=O)(=O)c2ccc(N3N=C(c4cc5ccccc5oc4=O)CC3c3ccc(N(C)C)cc3)cc2)cc1 (stereo not given)"
numeric_readout = 97.6


* * *

Test system: IGROV-1
Assay: Growth inhibition of human IGROV1 cells assessed as cell viability at 10 uM incubated for 48 hrs by sulforhodamine B assay
Assay type: functional
Conditions: IGROV-1, 48 h, read-out: Activity
# viability at 10 µM annotations
MEASURE NAME: viability at 10 µM (%)

[[record]]
compound = "COc1ccc(NC(=O)NS(=O)(=O)c2ccc(N3N=C(c4cc5ccccc5oc4=O)CC3c3ccc(N(C)C)cc3)cc2)cc1 (stereo not given)"
study_target = "IGROV-1"
numeric_readout = 109

[[record]]
compound = "O=C(NCc1ccccc1)NS(=O)(=O)c1ccc(N2N=C(c3cc4ccccc4oc3=O)CC2c2cccs2)cc1 (stereo not given)"
study_target = "IGROV-1"
numeric_readout = 117

[[record]]
compound = "COc1ccc(C2CC(c3ccco3)=NN2c2ccc(S(=O)(=O)NC(=O)NCc3ccccc3)cc2)cc1 (stereo not given)"
study_target = "IGROV-1"
numeric_readout = 113

[[record]]
compound = "CN(C)c1ccc(C2CC(c3cc4ccccc4oc3=O)=NN2c2ccc(S(=O)(=O)NC(=O)NCc3ccccc3)cc2)cc1 (stereo not given)"
study_target = "IGROV-1"
numeric_readout = 97.8

[[record]]
compound = "COc1ccc(C2CC(c3cc4ccccc4oc3=O)=NN2c2ccc(S(=O)(=O)NC(=O)Nc3ccccc3C)cc2)cc1 (stereo not given)"
study_target = "IGROV-1"
numeric_readout = 109


* * *

Tested on: CAKI-1
Experiment: Growth inhibition of human CAKI-1 cells assessed as cell viability at 10 uM incubated for 48 hrs by sulforhodamine B assay
Assay type: functional
Details: CAKI-1, 48 h, read-out: Activity
# viability at 10 µM annotations
MEASURE NAME: viability at 10 µM (%)

[[record]]
compound = "O=C(NCc1ccccc1)NS(=O)(=O)c1ccc(N2N=C(c3cc4ccccc4oc3=O)CC2c2cccs2)cc1 (stereo not given)"
measure_name = "viability at 10 µM"
numeric_readout = 94.2

[[record]]
compound = "COc1ccc(C2CC(c3ccco3)=NN2c2ccc(S(=O)(=O)NC(=O)NCc3ccccc3)cc2)cc1 (stereo not given)"
measure_name = "viability at 10 µM"
numeric_readout = 97.7

[[record]]
compound = "CN(C)c1ccc(C2CC(c3cc4ccccc4oc3=O)=NN2c2ccc(S(=O)(=O)NC(=O)NCc3ccccc3)cc2)cc1 (stereo not given)"
measure_name = "viability at 10 µM"
numeric_readout = 49.4

[[record]]
compound = "COc1ccc(C2CC(c3cc4ccccc4oc3=O)=NN2c2ccc(S(=O)(=O)NC(=O)Nc3ccccc3C)cc2)cc1 (stereo not given)"
measure_name = "viability at 10 µM"
numeric_readout = 83.8

[[record]]
compound = "COc1ccc(NC(=O)NS(=O)(=O)c2ccc(N3N=C(c4cc5ccccc5oc4=O)CC3c3ccc(N(C)C)cc3)cc2)cc1 (stereo not given)"
measure_name = "viability at 10 µM"
numeric_readout = 88.9


* * *

# viability at 10 µM annotations
Experiment: Growth inhibition of human MOLT4 cells assessed as cell viability at 10 uM incubated for 48 hrs by sulforhodamine B assay
Type: functional
Details: MOLT-4, 48 h, read-out: Activity
MEASURE NAME: viability at 10 µM (%)

[[record]]
compound = "COc1ccc(C2CC(c3cc4ccccc4oc3=O)=NN2c2ccc(S(=O)(=O)NC(=O)Nc3ccccc3C)cc2)cc1 (stereo not given)"
numeric_readout = 84.6

[[record]]
compound = "COc1ccc(C2CC(c3ccco3)=NN2c2ccc(S(=O)(=O)NC(=O)NCc3ccccc3)cc2)cc1 (stereo not given)"
numeric_readout = 110

[[record]]
compound = "CN(C)c1ccc(C2CC(c3cc4ccccc4oc3=O)=NN2c2ccc(S(=O)(=O)NC(=O)NCc3ccccc3)cc2)cc1 (stereo not given)"
numeric_readout = 66.6

[[record]]
compound = "COc1ccc(NC(=O)NS(=O)(=O)c2ccc(N3N=C(c4cc5ccccc5oc4=O)CC3c3ccc(N(C)C)cc3)cc2)cc1 (stereo not given)"
numeric_readout = 107

[[record]]
compound = "O=C(NCc1ccccc1)NS(=O)(=O)c1ccc(N2N=C(c3cc4ccccc4oc3=O)CC2c2cccs2)cc1 (stereo not given)"
numeric_readout = 106


* * *

Test system: SK-MEL-28
Assay: Growth inhibition of human SK-MEL-28 cells assessed as cell viability at 10 uM incubated for 48 hrs by sulforhodamine B assay
Assay type: functional
Conditions: SK-MEL-28, 48 h, read-out: Activity
# viability at 10 µM annotations
MEASURE NAME: viability at 10 µM (%)

[[record]]
compound = "O=C(NCc1ccccc1)NS(=O)(=O)c1ccc(N2N=C(c3cc4ccccc4oc3=O)CC2c2cccs2)cc1 (stereo not given)"
measure_name = "viability at 10 µM"
units = "%"
numeric_readout = 97.4

[[record]]
compound = "CN(C)c1ccc(C2CC(c3cc4ccccc4oc3=O)=NN2c2ccc(S(=O)(=O)NC(=O)NCc3ccccc3)cc2)cc1 (stereo not given)"
measure_name = "viability at 10 µM"
units = "%"
numeric_readout = 57.4

[[record]]
compound = "COc1ccc(C2CC(c3cc4ccccc4oc3=O)=NN2c2ccc(S(=O)(=O)NC(=O)Nc3ccccc3C)cc2)cc1 (stereo not given)"
measure_name = "viability at 10 µM"
units = "%"
numeric_readout = 102

[[record]]
compound = "COc1ccc(C2CC(c3ccco3)=NN2c2ccc(S(=O)(=O)NC(=O)NCc3ccccc3)cc2)cc1 (stereo not given)"
measure_name = "viability at 10 µM"
units = "%"
numeric_readout = 101

[[record]]
compound = "COc1ccc(NC(=O)NS(=O)(=O)c2ccc(N3N=C(c4cc5ccccc5oc4=O)CC3c3ccc(N(C)C)cc3)cc2)cc1 (stereo not given)"
measure_name = "viability at 10 µM"
units = "%"
numeric_readout = 101


* * *

Assay: Growth inhibition of human Hs 578T cells assessed as cell viability at 10 uM incubated for 48 hrs by sulforhodamine B assay
Format: functional
Conditions: read-out: Activity
MEASURE NAME: viability at 10 µM (%)

[[record]]
compound = "COc1ccc(C2CC(c3ccco3)=NN2c2ccc(S(=O)(=O)NC(=O)NCc3ccccc3)cc2)cc1 (stereo not given)"
numeric_readout = 105

[[record]]
compound = "COc1ccc(C2CC(c3cc4ccccc4oc3=O)=NN2c2ccc(S(=O)(=O)NC(=O)Nc3ccccc3C)cc2)cc1 (stereo not given)"
numeric_readout = 84.8

[[record]]
compound = "O=C(NCc1ccccc1)NS(=O)(=O)c1ccc(N2N=C(c3cc4ccccc4oc3=O)CC2c2cccs2)cc1 (stereo not given)"
numeric_readout = 99.6

[[record]]
compound = "CN(C)c1ccc(C2CC(c3cc4ccccc4oc3=O)=NN2c2ccc(S(=O)(=O)NC(=O)NCc3ccccc3)cc2)cc1 (stereo not given)"
numeric_readout = 67.1

[[record]]
compound = "COc1ccc(NC(=O)NS(=O)(=O)c2ccc(N3N=C(c4cc5ccccc5oc4=O)CC3c3ccc(N(C)C)cc3)cc2)cc1 (stereo not given)"
numeric_readout = 84.9


* * *

Test system: NCI-H460
Test: Growth inhibition of human NCI-H460 cells assessed as cell viability at 10 uM incubated for 48 hrs by sulforhodamine B assay
Format: functional
Conditions: NCI-H460, 48 h, read-out: Activity
MEASURE NAME: viability at 10 µM (%)

[[record]]
compound = "COc1ccc(C2CC(c3ccco3)=NN2c2ccc(S(=O)(=O)NC(=O)NCc3ccccc3)cc2)cc1 (stereo not drawn)"
units = "%"
numeric_readout = 106

[[record]]
compound = "O=C(NCc1ccccc1)NS(=O)(=O)c1ccc(N2N=C(c3cc4ccccc4oc3=O)CC2c2cccs2)cc1 (stereo not drawn)"
units = "%"
numeric_readout = 107

[[record]]
compound = "CN(C)c1ccc(C2CC(c3cc4ccccc4oc3=O)=NN2c2ccc(S(=O)(=O)NC(=O)NCc3ccccc3)cc2)cc1 (stereo not drawn)"
units = "%"
numeric_readout = 65.3

